Cited source: patent US11547681B2

experimentSummary: in vitro
experimentalContext: male, Beagle, dog, s9, 0.5 h, 1 μM
quantityMeasured: % Remaining of Initial (n = 1), 30 min (%)
Field: numeric (%). Do not append units.

The cases that follow already have their % Remaining of Initial (n = 1), 30 min on record.
1. CCCCC/C=C\C/C=C\CCCCCCCC(=O)OCCNC(=O)CCCCCCCCCCCCCCC: 45
2. CC/C=C\C/C=C\C/C=C\C/C=C\C/C=C\CCCC(=O)OCCNC(=O)CCCCCCCCCCCCCCC: 36
3. CCCCCCCCCCCCCCCC(=O)NCCOC(=O)CCC: 4.2

In the following, a different compound is considered.
Request the reported % Remaining of Initial (n = 1), 30 min associated with CCCCCCCCCCCCCCCC(=O)NCCOC(=O)CCC(=O)OCC(COC(=O)CCCCCCC)OC(=O)CCCCCCC (stereo not shown) [Compound I-3, PEA-Succinate-Glycerol-Di-Caprylic]
34

* * *

experimentSummary: Plasma stability (37° C., pH 7.4), rat
Assay type: in vitro ADME, Sprague-Dawley rat
experimentalContext: rat plasma, test article 1 μM, 37° C., pH 7.4, 15 min
Please enter 1.0 where % Remaining of Initial (n = 1), 15 min is greater than or equal to 60%, and 0.0 where it is lower.

Example entries and their recorded answers appear below.
1. CCCCC/C=C\C/C=C\CCCCCCCC(=O)OCCNC(=O)CCCCCCCCCCCCCCC: 1.0
2. CCCCCCCCCCCCCCCC(=O)NCCOC(=O)CCC(=O)OCC(COC(=O)CCCCCCC)OC(=O)CCCCCCC (stereo not shown) [Compound I-3, PEA-Succinate-Glycerol-Di-Caprylic]: 1.0

Decide: % Remaining of Initial (n = 1), 15 min of `CCCCCCCCCCCCCCCC(=O)NCCOC(=O)CCC` >= 60%?
0.0

Decide: % Remaining of Initial (n = 1), 15 min of CCCCCCCCCCCCCCCC(=O)NCCOC(=O)CCC(=O)OCC(COC(=O)CCC)OC(=O)CCC (stereo not shown) >= 60%?
0.0

Decide: % Remaining of Initial (n = 1), 15 min of `CCCCCCCCCCCCCCCC(=O)NCCOC(=O)CCC(=O)OC[C@H]1O[C@@](CO)(O[C@H]2O[C@H](CO)[C@@H](O)[C@H](O)[C@H]2O)[C@@H](O)[C@@H]1O` >= 60%?
0.0

Decide: % Remaining of Initial (n = 1), 15 min of `CC/C=C\C/C=C\C/C=C\C/C=C\C/C=C\CCCC(=O)OCCNC(=O)CCCCCCCCCCCCCCC` >= 60%?
1.0

Decide: % Remaining of Initial (n = 1), 15 min of CCCCCCCCCCCCCCCC(=O)NCCOC(=O)CCC(=O)OCC(O)CO (stereo not shown) >= 60%?
0.0

* * *

experimentSummary: Intestinal S9 fraction stability, mouse
experimentalContext: male, CD-1, mouse, s9, Half-life, Mouse intestinal S9 fraction
quantityMeasured: half-life at 1 μM

Request the reported half-life at 1 μM associated with C[C@]12CC[C@H]3[C@@H](CCC4=CC(=O)CC[C@@]43C)[C@@H]1CC[C@@H]2O [Testosterone, testosterone, reference compound]
> 1 h

* * *

experimentSummary: in vitro
experimentalContext: both, human, s9, 10 min, 1 μM
Catalogue of % Remaining of Initial (n = 1), 10 min readings, one per entry.
Field: numeric (%). Do not append units.

1) CCCCCCCCCCCCCCCC(=O)NCCOC(=O)CCC(=O)OC[C@H]1O[C@@](CO)(O[C@H]2O[C@H](CO)[C@@H](O)[C@H](O)[C@H]2O)[C@@H](O)[C@@H]1O [Compound I-7]: 1.9

Request the reported % Remaining of Initial (n = 1), 10 min associated with CCCCCCCCCCCCCCCC(=O)NCCOC(=O)CCC(=O)OCC(COC(=O)CCCCCCC)OC(=O)CCCCCCC (stereo not shown) [Compound I-3, PEA-Succinate-Glycerol-Di-Caprylic]
104

Request the reported % Remaining of Initial (n = 1), 10 min associated with CCCCCCCCCCCCCCCC(=O)NCCOC(=O)CCC(=O)OCC(COC(=O)CCC)OC(=O)CCC (stereo not shown) [Compound I-11]
2.8

Request the reported % Remaining of Initial (n = 1), 10 min associated with CC/C=C\C/C=C\C/C=C\C/C=C\C/C=C\CCCC(=O)OCCNC(=O)CCCCCCCCCCCCCCC [Compound I-5]
80

Request the reported % Remaining of Initial (n = 1), 10 min associated with CCCCCCCCCCCCCCCC(=O)NCCOC(=O)CCC [Compound I-2]
6.0

Request the reported % Remaining of Initial (n = 1), 10 min associated with CCCCC/C=C\C/C=C\CCCCCCCC(=O)OCCNC(=O)CCCCCCCCCCCCCCC [Compound I-6]
80

* * *

Catalogue of Concentration (μM) of analyte PEA, 10 min readings, one per entry.
experimentSummary: in vitro
experimentalContext: male, Sprague-Dawley, rat, 10 min, 1 μM
Field: numeric (µM). Do not append units.

The cases that follow already have their Concentration (μM) of analyte PEA, 10 min on record.
1) CC/C=C\C/C=C\C/C=C\C/C=C\C/C=C\CCCC(=O)OCCNC(=O)CCCCCCCCCCCCCCC: 0.025
2) CCCCCCCCCCCCCCCC(=O)NCCOC(=O)CCC: 0.31
3) CCCCC/C=C\C/C=C\CCCCCCCC(=O)OCCNC(=O)CCCCCCCCCCCCCCC: 0.035

In the following, a different compound is considered.
Request the reported Concentration (μM) of analyte PEA, 10 min associated with CCCCCCCCCCCCCCCC(=O)NCCOC(=O)CCC(=O)OCC(O)CO (stereo not shown)
0.31

* * *

experimentSummary: Plasma stability (37° C., pH 7.4), dog
Format: in vitro ADME, Beagle dog
experimentalContext: dog plasma, test article 1 μM, 37° C., pH 7.4, 120 min
quantityMeasured: % Remaining of Initial (n = 1), 120 min (%)
Field: numeric (%). Do not append units.

1) CCCCCCCCCCCCCCCC(=O)NCCOC(=O)CCC: 24
2) CCCCC/C=C\C/C=C\CCCCCCCC(=O)OCCNC(=O)CCCCCCCCCCCCCCC: 22
3) CC/C=C\C/C=C\C/C=C\C/C=C\C/C=C\CCCC(=O)OCCNC(=O)CCCCCCCCCCCCCCC: 83
4) CCCCCCCCCCCCCCCC(=O)NCCOC(=O)CCC(=O)OCC(COC(=O)CCC)OC(=O)CCC (stereo not shown): 5.4

Request the reported % Remaining of Initial (n = 1), 120 min associated with CCCCCCCCCCCCCCCC(=O)NCCOC(=O)CCC(=O)OCC(COC(=O)CCCCCCC)OC(=O)CCCCCCC (stereo not shown) [Compound I-3, PEA-Succinate-Glycerol-Di-Caprylic]
99

* * *

experimentSummary: in vitro
experimentalContext: male, Beagle, dog, s9, 20 min, 1 μM
quantityMeasured: % Remaining of Initial (n = 1), 20 min

The cases that follow already have their % Remaining of Initial (n = 1), 20 min on record.
1) CCCCCCCCCCCCCCCC(=O)NCCOC(=O)CCC(=O)OC[C@H]1O[C@@](CO)(O[C@H]2O[C@H](CO)[C@@H](O)[C@H](O)[C@H]2O)[C@@H](O)[C@@H]1O: <1.0%
2) CCCCCCCCCCCCCCCC(=O)NCCOC(=O)CCC(=O)OCC(COC(=O)CCCCCCC)OC(=O)CCCCCCC (stereo not shown) [Compound I-3, PEA-Succinate-Glycerol-Di-Caprylic]: 46%
3) CCCCCCCCCCCCCCCC(=O)NCCOC(=O)CCC(=O)OCC(COC(=O)CCC)OC(=O)CCC (stereo not shown): <1.0%
4) CC/C=C\C/C=C\C/C=C\C/C=C\C/C=C\CCCC(=O)OCCNC(=O)CCCCCCCCCCCCCCC: 48%
5) CCCCCCCCCCCCCCCC(=O)NCCOC(=O)CCC(=O)OCC(O)CO (stereo not shown): <1.0%
6) CCCCCCCCCCCCCCCC(=O)NCCOC(=O)CCC: 12%

In the following, a different compound is considered.
Request the reported % Remaining of Initial (n = 1), 20 min associated with `CCCCC/C=C\C/C=C\CCCCCCCC(=O)OCCNC(=O)CCCCCCCCCCCCCCC`
53%

* * *

experimentSummary: in vitro
experimentalContext: both, human, microsomes, CLint
quantityMeasured: microsomal CLint at 1 μM

The cases that follow already have their microsomal CLint at 1 μM on record.
1. CCCCC/C=C\C/C=C\CCCCCCCC(=O)OCC(COC(=O)CCC(=O)OCCNC(=O)CCCCCCCCCCCCCCC)OC(=O)CCCCCCC/C=C\C/C=C\CCCCC (stereo not drawn) [Compound I-13]: 29.6 µL/min/mg
2. CCCCCCCCCCCCCCCC(=O)NCCOC(=O)CCC(=O)OCC(COC(=O)CCCCCCC)OC(=O)CCCCCCC (stereo not drawn) [Compound I-3, PEA-Succinate-Glycerol-Di-Caprylic]: < 23.1 µL/min/mg
3. CCCCCCCCCCCCCCCC(=O)NCCOC(=O)CCC(=O)OC[C@H]1O[C@@](CO)(O[C@H]2O[C@H](CO)[C@@H](O)[C@H](O)[C@H]2O)[C@@H](O)[C@@H]1O [Compound I-7]: 612 µL/min/mg
4. CCCCCCCCCCCCCCCC(=O)NCCOC(=O)CCC(=O)OC(CO)CO [Compound I-8]: > 139 µL/min/mg
5. CCCCCCCCCCCCCCCC(=O)NCCOC(=O)CCC(=O)OC(COC(=O)CCC)COC(=O)CCC [Compound I-16]: > 139 µL/min/mg

In the following, a different molecule is considered.
Request the reported microsomal CLint at 1 μM associated with CCCCC/C=C\C/C=C\CCCCCCCC(=O)OCCNC(=O)CCCCCCCCCCCCCCC [Compound I-6]
< 23.1 µL/min/mg
